Listed below: pKd values for each entry.
- measured-target: UniProt Q92831
- Sequence (Q92831 723-827 limits assumed): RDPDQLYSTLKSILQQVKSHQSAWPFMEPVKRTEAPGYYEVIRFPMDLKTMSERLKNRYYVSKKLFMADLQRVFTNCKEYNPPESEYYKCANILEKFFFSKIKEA
- assay-method-text: BROMOscan ligand-binding assay
- assay-conditions: KD, PCAF
pKd: −log10 of the molar value.
readout-type: pKd

                                   molecule  result
0  O=C(C=CN1CC2CC1CN2c1ccccn1)c1ccccc1O (stereo not drawn) [PFI-3]  < 4.00
1          O=C(O)c1ccccc1O [Salicylic Acid]  < 1.85
2  CCC(=O)N1CCOc2c(cc(-c3ccc(OC)c(OC)c3)cc2OCC2CCCN(C)C2)C1 (stereo not drawn) [I-CBP112]    4.11

Values were extracted from paper PMC6478789.
